Recorded values, source patent EP2676962A1.

# target-or-test-system: UniProtKB P08311
# Sequence (P08311 21-244): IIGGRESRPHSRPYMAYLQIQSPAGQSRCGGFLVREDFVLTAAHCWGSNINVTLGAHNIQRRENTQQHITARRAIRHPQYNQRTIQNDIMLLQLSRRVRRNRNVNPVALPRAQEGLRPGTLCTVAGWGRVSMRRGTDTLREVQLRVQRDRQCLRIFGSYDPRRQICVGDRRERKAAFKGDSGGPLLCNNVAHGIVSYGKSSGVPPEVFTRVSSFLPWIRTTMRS
# experiment-description: Inhibitory activity toward cathepsin G, fluorogenic substrate, microplate reader
# Type: biochemical
# assay-conditions: 10 min pre-incubation at 37°C, pH 7,5, MCA-Phe-Val-Thr-Gnf-Ser-Trp-Anb-NH2 2.5µM; NI = brak inhibicji (no inhibition)
Cat G Kobs/[I]: recorded values

# compound, Cat G Kobs/[I]
data = [
    ("CSc1ccc(OP(=O)(Oc2ccc(SC)cc2)C(Cc2ccccc2)NC(=O)C2CCCN2C(=O)C(NC(=O)CCCCC2SCC3NC(=O)NC32)C(C)C)cc1 (stereo not shown)", "5.3*10^3 M^-1S^-1"),
    ("CSc1ccc(OP(=O)(Oc2ccc(SC)cc2)C(CC(C)C)NC(=O)C2CCCN2C(=O)CCCCC2SCC3NC(=O)NC32)cc1 (stereo not shown)", "1.0*10^3 M^-1S^-1"),
    ("CSc1ccc(OP(=O)(Oc2ccc(SC)cc2)C(NC(=O)C(NC(=O)C(NC(=O)C(Cc2ccccc2)NC(=O)CCC(=O)NCCCCCNC(=O)CCCCC2SCC3NC(=O)NC32)C(C)C)C(C)O)c2ccc(NC(=N)N)cc2)cc1 (stereo not shown)", "2.4*10^2 M^-1S^-1"),
    ("CSc1ccc(OP(=O)(Oc2ccc(SC)cc2)C(CC(C)C)NC(=O)C2CCCN2C(=O)C(NC(=O)CCCCC2SCC3NC(=O)NC32)C(C)C)cc1 (stereo not shown)", "2.6*10^3 M^-1S^-1"),
    ("CC(C)C(NC(=O)CCCCC1SCC2NC(=O)NC21)C(=O)N1CCCC1C(=O)NC(Cc1ccccc1)P(=O)(Oc1ccccc1)Oc1ccccc1 (stereo not shown)", "4.5*10^3 M^-1S^-1"),
    ("CC(C)C(NC(=O)CCC(=O)NCCCCCNC(=O)CCCCC1SCC2NC(=O)NC21)C(=O)N1CCCC1C(=O)NC(Cc1ccccc1)P(=O)(Oc1ccccc1)Oc1ccccc1 (stereo not shown)", "3.8*10^3 M^-1S^-1"),
    ("COC(=O)c1ccc(OP(=O)(Oc2ccc(C(=O)OC)cc2)C(CC(C)C)NC(=O)C2CCCN2C(=O)C(NC(=O)CCCCC2SCC3NC(=O)NC32)C(C)C)cc1 (stereo not shown)", "1.6*10^3 M^-1S^-1"),
]
